meta.source: ChEMBL document CHEMBL5131563

- target_or_test_system: GTPase KRas (Homo sapiens, UniProt P01116, G12D)
- Sequence (P01116 whole entry G12D): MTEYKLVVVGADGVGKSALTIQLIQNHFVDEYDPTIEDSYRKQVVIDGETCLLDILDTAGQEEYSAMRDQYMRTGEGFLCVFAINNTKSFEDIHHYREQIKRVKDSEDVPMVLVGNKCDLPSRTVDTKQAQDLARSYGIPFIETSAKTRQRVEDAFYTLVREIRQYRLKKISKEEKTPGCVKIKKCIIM
- test_name: Inhibition of recombinant biotinylated KRAS G12D mutant (unknown origin) assessed as inhibition of SOS-catalyzed nucleotide exchange preincubated for 60 mins followed by addition of human SOS protein and unlabeled GTP and measured after 60 mins by TR-FRET analysis
Where a SMILES comes first, the peptide text is derived from it. Bridges are numbered along the chain shown (N, C = ends). [ ]: non-standard residue; d: D form. Bip = N[C@@H](Cc1ccc(-c2ccccc2)cc1)C(=O)O; Dip = N[C@H](C(=O)O)C(c1ccccc1)c1ccccc1; Ala(cPent) = N[C@@H](CC1CCCC1)C(=O)O; hPhe = N[C@@H](CCc1ccccc1)C(=O)O; Cha = N[C@@H](CC1CCCCC1)C(=O)O; Nle = CCCC[C@H](N)C(=O)O; Dab = NCC[C@H](N)C(=O)O; Nva = CCC[C@H](N)C(=O)O
reported_metric: IC50

# compound, reported_metric, recorded_measurement
measured = [
    ("CC[C@H](C)[C@@H]1NC(=O)[C@H](Cc2ccc(-c3ccccc3)cc2)NC(=O)[C@H](CC(C)C)NC(=O)[C@@H]2CCCN2C(=O)[C@@H](NC(=O)[C@H](CCCNC(=N)N)NC(=O)[C@H](CCCNC(=N)N)NC(C)=O)CSSC[C@@H](C(=O)N[C@@H](CCCNC(=N)N)C(=O)N[C@@H](CCCNC(=N)N)C(N)=O)NC(=O)[C@H](C(C)C)NC(=O)[C@@H]2CCCN2C(=O)[C@H](CC(=O)O)NC(=O)[C@H](Cc2ccc(O)cc2)NC(=O)[C@H](CO)NC1=O (Ac-RRCPL[Bip]ISYDPVCRR-NH2; disulfide 3-13)", "IC50", "0.007 µM"),
    ("CCC[C@@H]1NC(=O)[C@H](Cc2ccc(O)cc2)NC(=O)[C@H](CC(C)C)NC(=O)[C@@H]2CCCN2C(=O)[C@@H](NC(=O)[C@H](CCCNC(=N)N)NC(=O)[C@H](CCCNC(=N)N)NC(C)=O)CSSC[C@@H](C(=O)N[C@@H](CCCNC(=N)N)C(=O)N[C@@H](CCCNC(=N)N)C(N)=O)NC(=O)[C@H](C(C)C)NC(=O)[C@@H]2CCCN2C(=O)[C@H](CC(=O)O)NC(=O)[C@H](Cc2ccc(O)cc2)NC(=O)[C@H](CO)NC1=O (Ac-RRCPLY[Nva]SYDPVCRR-NH2; disulfide 3-13)", "IC50", "> 11.1 µM"),
    ("CC(=O)N[C@@H](CCCNC(=N)N)C(=O)N[C@@H](CCCNC(=N)N)C(=O)N[C@H]1CSSC[C@@H](C(=O)N[C@@H](CCCNC(=N)N)C(=O)N[C@@H](CCCNC(=N)N)C(N)=O)NC(=O)[C@H](C(C)C)NC(=O)[C@@H]2CCCN2C(=O)[C@H](CC(=O)O)NC(=O)[C@H](Cc2ccc(O)cc2)NC(=O)[C@H](CO)NC(=O)[C@H](CC2CCCC2)NC(=O)[C@H](CC2CCCCC2)NC(=O)[C@H](CC(C)C)NC(=O)[C@@H]2CCCN2C1=O (Ac-RRCPL[Cha][Ala(cPent)]SYDPVCRR-NH2; disulfide 3-13)", "IC50", "> 11.1 µM"),
    ("CC(=O)N[C@@H](CCCNC(=N)N)C(=O)N[C@@H](CCCNC(=N)N)C(=O)N[C@H]1CSSC[C@@H](C(=O)N[C@@H](CCCNC(=N)N)C(=O)N[C@@H](CCCNC(=N)N)C(N)=O)NC(=O)[C@H](C(C)C)NC(=O)[C@@H]2CCCN2C(=O)[C@H](CC(=O)O)NC(=O)[C@H](Cc2ccc(O)cc2)NC(=O)[C@H](CO)NC(=O)[C@H](CC2CCCC2)NC(=O)[C@H](CCc2ccccc2)NC(=O)[C@H](CC(C)C)NC(=O)[C@@H]2CCCN2C1=O (Ac-RRCPL[hPhe][Ala(cPent)]SYDPVCRR-NH2; disulfide 3-13)", "IC50", "> 11.1 µM"),
    ("CC[C@H](C)[C@@H]1NC(=O)[C@H](Cc2ccc(O)cc2)NC(=O)[C@H](CC(C)C)NC(=O)[C@@H]2CCCN2C(=O)[C@@H](NC(=O)[C@H](CCCNC(=N)N)NC(=O)[C@H](CCCNC(=N)N)NC(C)=O)CSSC[C@@H](C(=O)N[C@@H](CCCNC(=N)N)C(=O)N[C@@H](CCCNC(=N)N)C(N)=O)NC(=O)[C@H](C(C)C)NC(=O)[C@@H]2CCCN2C(=O)[C@H](CC(=O)O)NC(=O)[C@H](C(c2ccccc2)c2ccccc2)NC(=O)[C@H](CCN)NC1=O (Ac-RRCPLYI[Dab][Dip]DPVCRR-NH2; disulfide 3-13)", "IC50", "> 11.1 µM"),
    ("CCC[C@@H]1NC(=O)[C@H](Cc2ccc(-c3ccccc3)cc2)NC(=O)[C@H](CC(C)C)NC(=O)[C@@H]2CCCN2C(=O)[C@@H](NC(=O)[C@H](CCCNC(=N)N)NC(=O)[C@H](CCCNC(=N)N)NC(C)=O)CSSC[C@@H](C(=O)N[C@@H](CCCNC(=N)N)C(=O)N[C@@H](CCCNC(=N)N)C(N)=O)NC(=O)[C@H](C(C)C)NC(=O)[C@@H]2CCCN2C(=O)[C@H](CC(=O)O)NC(=O)[C@H](Cc2ccc(O)cc2)NC(=O)[C@H](CO)NC1=O (Ac-RRCPL[Bip][Nva]SYDPVCRR-NH2; disulfide 3-13)", "IC50", "0.604 µM"),
    ("CCCC[C@@H]1NC(=O)[C@H]([C@@H](C)CC)NC(=O)[C@H](Cc2ccc(O)cc2)NC(=O)[C@H](CC(C)C)NC(=O)[C@@H]2CCCN2C(=O)[C@@H](NC(=O)[C@H](CCCNC(=N)N)NC(=O)[C@H](CCCNC(=N)N)NC(C)=O)CSSC[C@@H](C(=O)N[C@@H](CCCNC(=N)N)C(=O)N[C@@H](CCCNC(=N)N)C(N)=O)NC(=O)[C@H](C(C)C)NC(=O)[C@@H]2CCCN2C(=O)[C@H](CC(=O)O)NC(=O)[C@H](CC2CCCCC2)NC1=O (Ac-RRCPLYI[Nle][Cha]DPVCRR-NH2; disulfide 3-13)", "IC50", "> 11.1 µM"),
]

----------
# Lookup of reported IC50 keyed by entry
- target_or_test_system: GTPase KRas (Homo sapiens, UniProt P01116, G12D)
- test_name: Inhibition of recombinant biotinylated KRAS G12D mutant (unknown origin) assessed as inhibition of SOS-catalyzed nucleotide exchange preincubated for 60 mins followed by addition of human SOS protein and unlabeled GTP and measured after 60 mins by TR-FRET analysis
*1 amine or outer side, *2 acyl side, *3 side chain or, on linkers, in order; H or OH if unused. Where a SMILES comes first, the peptide text is derived from it. Bridges are numbered along the chain shown (N, C = ends). [ ]: non-standard residue; d: D form. X1 = O=C([C@@H]1[C@H](c2ccccc2)CCN1[*:1])[*:2]; Bip = N[C@@H](Cc1ccc(-c2ccccc2)cc1)C(=O)O; hPhe = N[C@@H](CCc1ccccc1)C(=O)O; hLeu = CC(C)CC[C@H](N)C(=O)O

# molecule, IC50
rows = [
    ("CC[C@H](C)[C@@H]1NC(=O)[C@H](Cc2ccc(-c3ccccc3)cc2)NC(=O)[C@H](CC(C)C)NC(=O)[C@@H]2[C@H](c3ccccc3)CCN2C(=O)[C@@H](NC(=O)[C@H](CCCNC(=N)N)NC(=O)[C@H](CCCNC(=N)N)NC(C)=O)CSSC[C@@H](C(=O)N[C@@H](CCCNC(=N)N)C(=O)N[C@@H](CCCNC(=N)N)C(N)=O)NC(=O)[C@H](C(C)C)NC(=O)[C@@H]2CCCN2C(=O)[C@H](CC(=O)O)NC(=O)[C@H](Cc2ccc(O)cc2)NC(=O)[C@H](CO)NC(=O)[C@H](C)NC1=O (Ac-RRC[X1]L[Bip]IASYDPVCRR-NH2; disulfide 3-14)", "< 1 nM"),
    ("CC[C@H](C)[C@@H]1NC(=O)[C@H](Cc2ccc(O)cc2)NC(=O)[C@H](CC(C)C)NC(=O)[C@@H]2CCCN2C(=O)[C@@H](NC(=O)[C@H](CCCNC(=N)N)NC(=O)[C@H](CCCNC(=N)N)NC(C)=O)CSSC[C@@H](C(=O)N[C@@H](CCCNC(=N)N)C(=O)N[C@@H](CCCNC(=N)N)C(N)=O)NC(=O)[C@H](C(C)C)NC(=O)[C@@H]2CCCN2C(=O)[C@H](CC(=O)O)NC(=O)[C@H](CC2CCCCC2)NC(=O)[C@H](CO)NC1=O", "1470 nM"),
    ("CC(=O)N[C@@H](CCCNC(=N)N)C(=O)N[C@@H](CCCNC(=N)N)C(=O)N[C@H]1CSSC[C@@H](C(=O)N[C@@H](CCCNC(=N)N)C(=O)N[C@@H](CCCNC(=N)N)C(N)=O)NC(=O)[C@H](C(C)C)NC(=O)[C@@H]2CCCN2C(=O)[C@H](CC(=O)O)NC(=O)[C@H](Cc2ccc(O)cc2)NC(=O)[C@H](CO)NC(=O)[C@H](CCC(C)C)NC(=O)[C@H](Cc2ccc(-c3ccccc3)cc2)NC(=O)[C@H](CC(C)C)NC(=O)[C@@H]2CCCN2C1=O (Ac-RRCPL[Bip][hLeu]SYDPVCRR-NH2; disulfide 3-13)", "> 11100 nM"),
    ("CC(=O)N[C@@H](CCCNC(=N)N)C(=O)N[C@@H](CCCNC(=N)N)C(=O)N[C@H]1CSSC[C@@H](C(=O)N[C@@H](CCCNC(=N)N)C(=O)N[C@@H](CCCNC(=N)N)C(N)=O)NC(=O)[C@H](C(C)C)NC(=O)[C@@H]2CCCN2C(=O)[C@H](CC(=O)O)NC(=O)[C@H](Cc2ccc(O)cc2)NC(=O)[C@H](CO)NC(=O)[C@H](CCC(C)C)NC(=O)[C@H](CCc2ccccc2)NC(=O)[C@H](CC(C)C)NC(=O)[C@@H]2CCCN2C1=O (Ac-RRCPL[hPhe][hLeu]SYDPVCRR-NH2; disulfide 3-13)", "> 11100 nM"),
]
